EC50 reference
- Experimental system: TDO2 (SW48 cells, high TDO expressing cells) (Homo sapiens, UniProt P48775)
- Construct: SW48 cells (high TDO expressing cells); endogenous in cells; host or cells: SW48 cells
- Sequence (P48775 whole entry): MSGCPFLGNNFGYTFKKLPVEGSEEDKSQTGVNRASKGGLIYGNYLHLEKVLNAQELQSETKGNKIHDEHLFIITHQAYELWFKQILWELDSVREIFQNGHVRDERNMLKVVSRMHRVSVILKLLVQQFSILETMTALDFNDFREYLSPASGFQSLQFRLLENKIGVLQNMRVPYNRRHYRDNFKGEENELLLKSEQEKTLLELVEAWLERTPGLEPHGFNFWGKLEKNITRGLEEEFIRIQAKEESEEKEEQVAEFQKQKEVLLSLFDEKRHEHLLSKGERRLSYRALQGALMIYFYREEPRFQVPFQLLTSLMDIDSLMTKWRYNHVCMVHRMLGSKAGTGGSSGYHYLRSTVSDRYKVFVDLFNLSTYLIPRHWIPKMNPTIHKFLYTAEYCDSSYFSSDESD
- Method summary: NFK GreenScreen cell assay, inhibition of TDO in SW48 cells
- Format: cell-based
- Condition notes: read-out: TDO2 Cell Fluor EC50
Respond numerically; units are µM and should not be typed.

As a guide, the following entries are already answered.
molecule="CC(C)(C)OC(=O)N1CC2CCC(C1)C21C[C@@H]([C@H]2c3ccccc3-c3cncn32)[C@H]1O (single isomer, unassigned) [Example 22b]" measured_endpoint=EC50 recorded_measurement=5
molecule="CC(C)(C)OC(=O)N1[C@@H]2CC[C@H]1C[C@@]1(C[C@H]([C@@H]3c4ccccc4-c4cncn43)[C@@H]1O)C2 (single isomer, unassigned) [Example 12i]" measured_endpoint=EC50 recorded_measurement=13
molecule="CC(=O)N1CCC2(CC[C@H]([C@@H]3c4ccccc4-c4cncn43)[C@@H]2O)CC1 (single isomer, unassigned) [Example 10b]" measured_endpoint=EC50 recorded_measurement=0.17
molecule=O=C(C1CCOCC1)N1CCC2(CC1)C[C@@H]([C@H]1c3ccccc3-c3cncn31)[C@H]2O measured_endpoint=EC50 recorded_measurement=2.1
molecule="CC(C)(C)OC(=O)N1CC2CCC(C1)C21C[C@@H]([C@@H]2c3ccccc3-c3cncn32)[C@@H]1O (stereo partly shown) [Example 22e]" measured_endpoint=EC50 recorded_measurement=17
molecule="O=S(=O)(C(F)F)N1CCC2(CC1)C[C@@H]([C@H]1c3ccccc3-c3cncn31)[C@H]2O (single isomer, unassigned) [Example 14b]" measured_endpoint=EC50 recorded_measurement=0.13
molecule="CC(C)(C)OC(=O)N1CCC2(CC1)C[C@@H]([C@H]1c3ccccc3-c3cncn31)[C@H]2O (single isomer, unassigned)" measured_endpoint=EC50 recorded_measurement=0.3
molecule="O=C(OCC(F)F)N1CCC2(CCC(C3c4ccccc4-c4cncn43)C2O)CC1 (single isomer, unassigned)" measured_endpoint=EC50 recorded_measurement=0.056

Quote EC50 reported for CC(C)(C)OC(=O)N1[C@@H]2CC[C@H]1C[C@@]1(C[C@H]([C@H]3c4ccccc4-c4cncn43)[C@H]1O)C2 (single isomer, unassigned) [Example 12f] please. 11

###

- Experimental system: IDO1 (A172+IFNg cells, high IDO expressing cells) (Homo sapiens, UniProt P14902)
- Construct: A172+IFNg cells (high IDO expressing cells); endogenous in cells
- Sequence (P14902 whole entry): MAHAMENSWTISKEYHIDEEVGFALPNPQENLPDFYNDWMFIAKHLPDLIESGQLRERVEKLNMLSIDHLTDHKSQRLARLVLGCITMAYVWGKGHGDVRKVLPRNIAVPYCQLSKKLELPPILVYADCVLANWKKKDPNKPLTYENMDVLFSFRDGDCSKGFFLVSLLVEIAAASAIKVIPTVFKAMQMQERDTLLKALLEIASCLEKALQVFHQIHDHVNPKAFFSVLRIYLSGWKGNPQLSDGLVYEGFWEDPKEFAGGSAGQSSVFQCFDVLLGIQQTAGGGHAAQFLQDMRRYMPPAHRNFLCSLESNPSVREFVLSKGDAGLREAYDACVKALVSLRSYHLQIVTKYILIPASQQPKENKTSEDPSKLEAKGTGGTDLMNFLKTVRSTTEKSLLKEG
- Method summary: NFK GreenScreen cell assay, inhibition of IDO in A172+IFNg cells
- Condition notes: read-out: IDO cell Fluor EC50
pEC50 reference
Reminder that pEC50 means the negative base-10 logarithm of the concentration expressed in mol/L.

molecule="CS(=O)(=O)N1CCC2(CC[C@@H]([C@H]3c4ccccc4-c4cncn43)[C@H]2O)CC1 (single isomer, unassigned)" recorded_measurement=6.94
molecule=COCCC(=O)N1CCC2(CC1)C[C@@H]([C@H]1c3ccccc3-c3cncn31)[C@H]2O recorded_measurement=6.07
molecule="O=C(CC1CCOCC1)N1CCC2(CC1)CC(C1c3ccccc3-c3cncn31)C2O (stereo not shown)" recorded_measurement=6.41
molecule="O=C([C@@H]1CC1(F)F)N1CCC2(CC[C@@H]([C@H]3c4ccccc4-c4cncn43)[C@H]2O)CC1 (single isomer, unassigned) [Example 25a]" recorded_measurement=7.47
molecule="O=S1(=O)CCC2(CC[C@@H]([C@H]3c4ccccc4-c4cncn43)[C@H]2O)CC1 (relative stereo) [Example 13a]" recorded_measurement=6.54
molecule="O=S(=O)(CF)N1CCC2(CC1)C[C@@H]([C@H]1c3ccccc3-c3cncn31)[C@H]2O (single isomer, unassigned)" recorded_measurement=7.32

Here is the next item to consider.
Quote pEC50 reported for CC(C)(C)OC(=O)N1CCC2(CC[C@@H]([C@@H]3c4ccccc4-c4cncn43)[C@@H]2O)CC1 (single isomer, unassigned) please. 5.18

###

- Experimental system: TDO2 (SW48 cells, high TDO expressing cells) (Homo sapiens, UniProt P48775)
- Construct: SW48 cells (high TDO expressing cells); endogenous in cells
- Method summary: NFK GreenScreen cell assay, inhibition of TDO in SW48 cells
- Condition notes: read-out: TDO2 Cell Fluor EC50
Binary label based on EC50 with cut-off 1000 nM: below gives YES, not below gives NO.

molecule="NS(=O)(=O)N1CCC2(CC1)C[C@@H]([C@@H]1c3ccccc3-c3cncn31)[C@H]2O (single isomer, unassigned) [Example 11e]" experimental_system="TDO2 (SW48 cells, high TDO expressing cells) (Homo sapiens, UniProt P48775)" label_class=NO

Consider the molecule NS(=O)(=O)N1CCC2(CC[C@H]([C@@H]3c4ccccc4-c4cncn43)[C@@H]2O)CC1 (single isomer, unassigned) . Is its EC50 strictly less than 1000 nM? YES

Consider the molecule CC(C)(C)OC(=O)N1CC2(CC[C@H]([C@H]3c4ccccc4-c4cncn43)[C@@H]2O)C1 (single isomer, unassigned) . Is its EC50 strictly less than 1000 nM? NO

Consider the molecule CC(C)(C)OC(=O)N[C@H]1CC[C@]2(CC1)C[C@H]([C@H]1c3ccccc3-c3cncn31)[C@@H]2O [Example 24g] . Is its EC50 strictly less than 1000 nM? NO

Consider the molecule CC(C)(C)OC(=O)N1CC2(CC[C@H]([C@@H]3c4ccccc4-c4cncn43)[C@H]2O)C1 (single isomer, unassigned) . Is its EC50 strictly less than 1000 nM? YES

Consider the molecule Cc1noc(C)c1S(=O)(=O)N1CCC2(CC1)C[C@@H]([C@H]1c3ccccc3-c3cncn31)[C@H]2O . Is its EC50 strictly less than 1000 nM? NO

Consider the molecule CC(C)(C)OC(=O)N1[C@@H]2CC[C@H]1C[C@@]1(C[C@@H]([C@H]3c4ccccc4-c4cncn43)[C@H]1O)C2 (single isomer, unassigned) [Example 12b] . Is its EC50 strictly less than 1000 nM? NO

Consider the molecule O=C(C1CCOC1)N1CCC2(CC1)C[C@@H]([C@H]1c3ccccc3-c3cncn31)[C@H]2O (stereo partly drawn) . Is its EC50 strictly less than 1000 nM? NO

Consider the molecule CC(C)(C)OC(=O)N[C@H]1CC[C@]2(CC1)C[C@H]([C@H]1c3ccccc3-c3cncn31)[C@@H]2O (single isomer, unassigned) [Example 24n] . Is its EC50 strictly less than 1000 nM? NO

Consider the molecule CC(C)(C)OC(=O)N[C@H]1CC[C@@]2(CC1)C[C@H]([C@@H]1c3ccccc3-c3cncn31)[C@H]2O (single isomer, unassigned) [Example 24a] . Is its EC50 strictly less than 1000 nM? NO

Consider the molecule CC(C)(C)OC(=O)N1CC2(CC[C@@H]([C@@H]3c4ccccc4-c4cncn43)[C@H]2O)C1 (single isomer, unassigned) . Is its EC50 strictly less than 1000 nM? NO

Consider the molecule CC(C)(C)OC(=O)N1CC2(CC[C@@H]([C@H]3c4ccccc4-c4cncn43)[C@@H]2O)C1 (single isomer, unassigned) . Is its EC50 strictly less than 1000 nM? NO

###

log10(EC50) reference
- Experimental system: TDO2 (SW48 cells, high TDO expressing cells) (Homo sapiens)
- Construct: SW48 cells (high TDO expressing cells); endogenous in cells
- Method summary: NFK GreenScreen cell assay, inhibition of TDO in SW48 cells
- Condition notes: read-out: TDO2 Cell Fluor EC50
// stored as log10 of EC50 expressed in µM

As a guide, the following entries are already answered.
molecule="CC(NC=O)C(=O)N1CCC2(CC1)CC(C1c3ccccc3-c3cncn31)C2O (stereo not drawn)" experimental_system="TDO2 (SW48 cells, high TDO expressing cells) (Homo sapiens)" recorded_measurement=0.61
molecule="CS(=O)(=O)N1CC2(CCC(C3c4ccccc4-c4cncn43)C2O)C1 (single isomer, unassigned)" experimental_system="TDO2 (SW48 cells, high TDO expressing cells) (Homo sapiens)" recorded_measurement=-1.02
molecule="Cn1cc(S(=O)(=O)N2CCC3(CC2)CC(C2c4ccccc4-c4cncn42)C3O)cn1 (stereo not drawn)" experimental_system="TDO2 (SW48 cells, high TDO expressing cells) (Homo sapiens)" recorded_measurement=-0.66
molecule="CC(C)(C)OC(=O)N1[C@@H]2CC[C@H]1C[C@@]1(C[C@H]([C@H]3c4ccccc4-c4cncn43)[C@@H]1O)C2 (single isomer, unassigned) [Example 12k]" experimental_system="TDO2 (SW48 cells, high TDO expressing cells) (Homo sapiens)" recorded_measurement=1.18
molecule="NC(=O)N1CCCC(C(=O)N2CCC3(CC2)CC(C2c4ccccc4-c4cncn42)C3O)C1 (stereo not drawn)" experimental_system="TDO2 (SW48 cells, high TDO expressing cells) (Homo sapiens)" recorded_measurement=1.11

Here is the next item to consider.
Quote log10(EC50) reported for COC(=O)N1CCC2(CC[C@@H]([C@H]3c4ccccc4-c4cncn43)[C@H]2O)CC1 (single isomer, unassigned) please. 1.32
